assay: cell-permeable autofluorescent compounds in GFP channel, dose response, artefact control, imaging, high-content imaging (AID 2124); conditions: cells, GFP-channel autofluorescence, high-content imaging; cell count; at 10 µM;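 further: cells exposed to compound for 48 hours before fixing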
Inconclusive results are not listed.
Experimental Readout: cell count (cells)
Provide the reading as a plain figure in cells.

Please review the following examples before continuing.
Molecule	Experimental Result
O=C(NCCCN1CCCCCC1)C1CC(=O)N(C2CCCC2)C1 (stereo not drawn)	3260
COc1ccccc1NS(=O)(=O)c1cc([N+](=O)[O-])ccc1N/N=C/c1sc(N2CCOCC2)nc1-c1ccccc1	2550
CC(Sc1ccccc1)C(=O)NN=C1CCCCCC1 (stereo not drawn)	2920
CCCN1C(=O)S/C(=C\c2ccc(N3CCOCC3)o2)C1=O	194
Cc1oc(C)c2c(=O)ccc3c(c12)OC(N)=C(C#N)C3c1ccccc1Cl (stereo not drawn)	3240
CCS(=O)(=O)c1ccc2oc(SCC(=O)NC3CCCC(C)C3C)nc2c1 (stereo not drawn)	2950
Cc1ccc(S(=O)(=O)c2cccc(S(=O)(=O)N3CCCC3)c2)cc1S(=O)(=O)N1CCCC1	2360
NS(=O)(=O)c1cccc2cccnc12	3060
CCCCCCn1c(O)c(C=Nc2ccccc2N2CCOCC2)c(=O)[nH]c1=S	3050
C=CCN1C(=O)/C(=C/c2ccc(N3CCOCC3)o2)C(=O)NC1=S	3270

Any idea what its cell count is? The molecule is Cc1[nH]n(-c2ccc([N+](=O)[O-])cc2)c(=O)c1C=NCCN1CCN(C(=O)c2ccccc2F)CC1
3100

Name the recorded cell count for CCOC(=O)CC1C(=O)NCCN1S(=O)(=O)c1ccc(Cl)cc1Cl (stereo not drawn) .
3500

Sample Cc1oc(C)c2c(=O)ccc3c(c12)OC(N)=C(C#N)C3c1ccccc1 (stereo not drawn) — what was its cell count?
2830

// lookup cell count for CCOc1cc(N(CC)CC)ccc1/C=C(/C#N)c1nc2ccccc2[nH]1
1870

Name the recorded cell count for CCCCN1C(=O)/C(=C/C=C2\N(C)c3ccccc3C2(C)C)SC1=S .
2910

Any idea what its cell count is? The molecule is C1=C(c2ccccc2)Nc2nnnn2C1
3170

What measured cell count goes with Cc1nn(-c2ccccc2)c(C)c1NC(=O)CCl ?
1910
